molecular target: UniProt:P43490; experiment: Measurement of NamPT inhibitory ability IC50 (NamPT colorimetric assay kit, Abcam ab221819); assay type: biochemical; details: NamPT recombinant protein, WST-1 absorbance at 450 nm; class key in μM
Measurement kind: IC50

> print(dat)
                                   molecule  target.or.test.system  reported.result
1  CCOC(=O)c1ccc2oc(-c3ccc(CNC(=O)c4cnc5nccn5c4)cc3)nc2c1 [Example 29]         UniProt:P43490        < 0.05 µM
2  Cc1ccc2nc(-c3ccc(CNC(=O)c4cnc5nccn5c4)cc3)sc2c1 [Example 8]         UniProt:P43490        < 0.05 µM
3  O=C(NCc1ccc(-c2nc3ccccc3o2)cc1)c1cnc2nccn2c1 [Example 2]         UniProt:P43490  0.051 to 0.1 µM
4  COc1ccc2nc(-c3ccc(CNC(=O)c4cnc5nccn5c4)cc3)sc2c1 [Example 52]         UniProt:P43490        < 0.05 µM
5  COc1ccc2nc(-c3ccc(CNC(=O)c4cnc5nccn5c4)cc3)oc2c1 [Example 22]         UniProt:P43490        < 0.05 µM

Req: Requested field: IC50. Item: O=C(NCc1ccc(-c2nc3cnc(Cl)cc3o2)cc1)c1cnc2nccn2c1 [Example 62]
Resp: 0.051 to 0.1 µM

Req: Now the molecule O=C(NCc1ccc(-c2nc3cc(C(=O)N4CCC4)ccc3o2)cc1)c1cnc2nccn2c1 [Example 33]
Resp: < 0.05 µM

Req: Now the molecule O=C(NCc1ccc(-c2nc3cc(C(=O)N4CCCC4)ccc3o2)cc1)c1cnc2nccn2c1 [Example 34]
Resp: < 0.05 µM

Req: Now the molecule O=C(NCc1ccc(-c2nc3ccc(F)cc3o2)cc1)c1cnc2nccn2c1 [Example 17]
Resp: 0.051 to 0.1 µM

* * *

Reported IC50 values follow for various molecules
molecular target: NamPT (Homo sapiens (Human), UniProt P43490); test: Measurement of NamPT inhibitory ability IC50 (NamPT colorimetric assay kit, Abcam ab221819); assay type: biochemical; settings: NamPT recombinant protein, WST-1 absorbance at 450 nm; class key in μM
Sequence (P43490 whole entry): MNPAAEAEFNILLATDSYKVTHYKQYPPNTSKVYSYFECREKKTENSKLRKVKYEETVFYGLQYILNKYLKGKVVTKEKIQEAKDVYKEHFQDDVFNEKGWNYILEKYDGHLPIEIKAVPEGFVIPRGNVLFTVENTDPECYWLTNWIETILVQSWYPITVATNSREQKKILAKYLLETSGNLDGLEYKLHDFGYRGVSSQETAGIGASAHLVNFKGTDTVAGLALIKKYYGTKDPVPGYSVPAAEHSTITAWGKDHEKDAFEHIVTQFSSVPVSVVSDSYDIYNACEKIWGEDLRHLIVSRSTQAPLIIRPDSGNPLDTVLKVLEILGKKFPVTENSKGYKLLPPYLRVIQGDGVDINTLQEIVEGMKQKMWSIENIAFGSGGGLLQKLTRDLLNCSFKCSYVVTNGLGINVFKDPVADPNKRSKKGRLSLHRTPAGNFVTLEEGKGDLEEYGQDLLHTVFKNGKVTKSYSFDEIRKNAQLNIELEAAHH

> print(dat)
                               entry.smiles  reported.result
1  Cc1cccc2oc(-c3ccc(CNC(=O)c4cnc5nccn5c4)cc3)nc12     0.11 to 1 µM

Req: Look up IC50 with NamPT (Homo sapiens (Human), UniProt P43490) for this molecule: O=C(NCc1ccc(-c2nc3cc(-c4cccnc4)ccc3o2)cc1)c1cnc2nccn2c1
Resp: 0.051 to 0.1 µM

Req: Now the molecule Cc1ccc2nc(-c3ccc(CNC(=O)c4cnc5nccn5c4)cc3)oc2n1
Resp: < 0.05 µM

Req: Now the molecule O=C(NCc1ccc(-c2nc3cc(Oc4ccccn4)ccc3o2)cc1)c1cnc2nccn2c1
Resp: < 0.05 µM

* * *

Reported IC50 values follow for various compounds
target: NamPT (Homo sapiens (Human), UniProt P43490); test: Measurement of NamPT inhibitory ability IC50 (NamPT colorimetric assay kit, Abcam ab221819); type: biochemical; settings: NamPT recombinant protein, WST-1 absorbance at 450 nm; class key in μM

Example results:
> print(dat)
                                   compound  measurement.kind  reported.result
1  Cc1ccc2nc(-c3ccc(C(C)NC(=O)c4cnc5nccn5c4)cc3)oc2c1 (centres unmarked) [Example 64]              IC50           > 1 µM
2  O=C(NCc1ccc(-c2nc3ccc(Oc4ccccc4)cc3o2)cc1)c1cnc2nccn2c1 [Example 57]              IC50           > 1 µM
3  O=C(NCc1ccc(-c2nc3cc(CO)ccc3o2)cc1)c1cnc2nccn2c1 [Example 30]              IC50        < 0.05 µM
4  O=C(NCc1ccc(-c2nc3cc(C(F)(F)F)c(Cl)cc3o2)cc1)c1cnc2nccn2c1 [Example 41]              IC50        < 0.05 µM
5  O=C(NCc1ccc(-c2nc3cc(C(F)(F)F)ccc3o2)cc1)c1cnc2nccn2c1 [Example 13]              IC50        < 0.05 µM

Req: Requested field: IC50. Item: Cc1ccc2nc(-c3ccc(CNC(=O)c4cnc5nccn5c4)cc3)oc2c1 [Example 1]
Resp: 0.051 to 0.1 µM

Req: Now the compound Cc1ccc2oc(-c3ccc(CNC(=O)c4cnc5nccn5c4)cc3)nc2c1 [Example 6]
Resp: < 0.05 µM

Req: Now the compound O=C(NCc1ccc(-c2nc3ccc(Cl)cc3s2)cc1)c1cnc2nccn2c1 [Example 50]
Resp: 0.051 to 0.1 µM

Req: Now the compound CCC(=O)Nc1ccc2oc(-c3ccc(CNC(=O)c4cnc5nccn5c4)cc3)nc2c1 [Example 15]
Resp: 0.11 to 1 µM

Req: Now the compound O=C(NCc1ccc(-c2nc3cc(-c4ccccc4)ccc3o2)cc1)c1cnc2nccn2c1 [Example 56]
Resp: 0.11 to 1 µM

Req: Now the compound Cc1ccc2nc(-c3ccc(CNC(=O)c4cnc5nccn5c4)c(F)c3)oc2c1 [Example 35]
Resp: < 0.05 µM

* * *

Target: NamPT (Homo sapiens (Human))
Assay: Measurement of NamPT inhibitory ability IC50 (NamPT colorimetric assay kit, Abcam ab221819)
Format: biochemical
Settings: NamPT recombinant protein, WST-1 absorbance at 450 nm; class key in μM
Protocol: To test the effect of the compound prepared in each Example on the substrate decomposition rate (Vmax/min) mediated by NamPT enzyme, IC50 was calculated. […] WST-1 formazan converted by NAD generated by adding WST-1 was measured. The result of the reaction was obtained by the following formula by measuring absorbance using EnVision2105 (PerkinElmer) at 450 nm for 60 minutes at 2-minute intervals. […]
Measurement kind: IC50

Example results:
> print(dat)
                               entry.smiles  reported.result
1  CS(=O)(=O)c1ccc2oc(-c3ccc(CNC(=O)c4cnc5nccn5c4)cc3)nc2c1        < 0.05 µM
2  O=C(NCc1ccc(-c2nc3cc(O)ccc3o2)cc1)c1cnc2nccn2c1        < 0.05 µM
3  CCNC(=O)c1ccc2oc(-c3ccc(CNC(=O)c4cnc5nccn5c4)cc3)nc2c1        < 0.05 µM
4  CCS(=O)(=O)c1ccc2oc(-c3ccc(CNC(=O)c4cnc5nccn5c4)cc3)nc2c1     0.11 to 1 µM
5  O=C(NCc1ccc(-c2nc3cc(F)ccc3o2)cc1)c1cnc2nccn2c1     0.11 to 1 µM
6  O=C(NCc1ccc(-c2nc3cc(F)c(F)cc3o2)cc1)c1cnc2nccn2c1        < 0.05 µM

Req: Requested field: IC50. Item: Nc1ccc2nc(-c3ccc(CNC(=O)c4cnc5nccn5c4)cc3)oc2c1
Resp: 0.051 to 0.1 µM

Req: Now the molecule COc1ccc2oc(-c3ccc(CNC(=O)c4cnc5nccn5c4)cc3)nc2c1
Resp: < 0.05 µM

* * *

target: NamPT (Homo sapiens (Human)); assay: Measurement of NamPT inhibitory ability IC50 (NamPT colorimetric assay kit, Abcam ab221819); type: biochemical; details: NamPT recombinant protein, WST-1 absorbance at 450 nm; class key in μM
Measurement kind: IC50

> print(dat)
                                   compound  reported.result
1  CCc1ccc2oc(-c3ccc(CNC(=O)c4cnc5nccn5c4)cc3)nc2c1 [Example 44]        < 0.05 µM
2  O=C(NCc1ccc(-c2nc3c(F)cc(F)cc3o2)cc1)c1cnc2nccn2c1 [Example 40]        < 0.05 µM
3  O=C(NCc1ccc(-c2nc3cc(Oc4ccccc4)ccc3o2)cc1)c1cnc2nccn2c1 [Example 53]        < 0.05 µM
4  O=C(NCc1ccc(-c2nc3ccc(Oc4cccnc4)cc3o2)cc1)c1cnc2nccn2c1 [Example 58]        < 0.05 µM
5  CN(C)C(=O)c1ccc2oc(-c3ccc(CNC(=O)c4cnc5nccn5c4)cc3)nc2c1 [Example 32]        < 0.05 µM

Req: Requested field: IC50. Item: CCCOc1ccc2oc(-c3ccc(CNC(=O)c4cnc5nccn5c4)cc3)nc2c1 [Example 54]
Resp: 0.051 to 0.1 µM

Req: Now the compound O=C(NCc1ccc(-c2nc3ccc(-c4ccccc4)cc3o2)cc1)c1cnc2nccn2c1 [Example 59]
Resp: > 1 µM

Req: Now the compound Cc1cc2nc(-c3ccc(CNC(=O)c4cnc5nccn5c4)cc3)oc2cc1Cl [Example 10]
Resp: < 0.05 µM
